# Test system: HT29 colon
# test: NCI-60 one-dose screen, 48 h (100 = growth as untreated, 0 = no growth, -100 = all killed)
# appliedConditions: 10 µM
Compounds without any hit were thinned out: in the full panel of roughly 83,000, 20% have a hit. The source made the active and inactive calls. Rule for the calls: active = growth percent below 10; inactive = the rest.
readout: growth

Below are worked cases with known answers.
COc1ccccc1[C@H]1C(C(=O)c2ccc(Cl)cc2)C2(N[C@@H]1c1ccccc1)C(=O)Nc1ccc(Cl)cc12 (stereo partly drawn) : -3.95% (active)
CC[C@]12C=CCN3CC[C@@]4(c5cc(C#CCNc6ccc(C)c(Nc7nccc(-c8cccnc8)n7)c6)c(OC)cc5N(C)[C@H]4[C@@](O)(C(=O)OC)[C@@H]1OC(C)=O)C32 (stereo partly drawn) : 25.8% (inactive)

"O=C(NCCCCCCCCCC[P+](c1ccccc1)(c1ccccc1)c1ccccc1)c1ccc(-n2nc(-c3ccccc3O)nc2-c2ccccc2O)cc1" yielded growth of -72.9% (active)

# compound O=C(Cc1ccc2c(c1)CN(C1CCC(=O)NC1=O)C2=O)NCCc1ccccc1 (stereo not drawn) ; its growth = 31.3% (inactive)

Measured growth of "N#Cc1c(NC(=O)c2ccc(C(F)(F)F)cc2C(F)(F)F)sc2c1CCC(=O)C2" : -57% (active)

====

# System: SK-MEL-5 melanoma
# test: NCI-60 one-dose screen, 48 h (100 = growth as untreated, 0 = no growth, -100 = all killed)
# appliedConditions: 10 µM
About 83,000 compounds went through this panel and 20% of them were active in at least one assay; those are over-represented in the sample as a whole.
Rule: growth under 40% gives Criterion not met, otherwise Criterion met.

Cn1cc(/C=N/Nc2cccc(Cl)n2)c2ccccc21 : Criterion met
C[C@H]1[C@H](C)CC[C@]2(COC(=O)CCC(=O)NCC#CCN3CCNCC3)CC[C@]3(C)C(=CC[C@@H]4[C@@]5(C)CCCNC(C)(C)[C@@H]5CC[C@]43C)[C@H]12 : Criterion not met
COC[C@@H](CC(C)C)N=C1NC(=O)/C(=C/c2ccc3ncsc3c2)N1 : Criterion not met

Say whether "CC(=O)c1ccc(NC(=O)NCn2c(=O)[nH]c3ccccc3c2=O)cc1" shows growth of 40% or more.
Criterion met

Record COc1ccc(C2NC(=S)NC(C)=C2C(=O)OC(C)C)cc1OC (centres undefined) ; criterion: growth no lower than 40%. Met?
Criterion met

Hi team, for "CC(=O)c1cc(C(=O)N2c3ccccc3Sc3ccccc32)n2ccc(C)cc12" , is the recorded growth at or above 40%?
Criterion not met

Does the reported growth for "O=C(NC(=S)N1CCN(c2ncnc3c2cnn3-c2ccccc2)CC1)c1ccc(Cl)cc1" fall at or above the 40% mark?
Criterion met

Quick check: does "OCCNc1oc(-c2ccccc2)nc1[P+](c1ccccc1)(c1ccccc1)c1ccccc1" have growth greater than or equal to 40%?
Criterion not met

Reported growth at or above 40%? "O=c1cc(-c2ccccc2)oc2cc(OCCCNCc3ccccc3)cc(O)c12"
Criterion not met

Is growth at least 40%? Consider "O=C(CSc1nnc(-c2ccc3nc(-c4ccc(Cl)cc4)[nH]c3c2)o1)Nc1ccc(Br)cc1"
Criterion not met

Decide: is the reported value of growth for "C/C(=C\c1ccc(O)cc1O)c1ccc2ccc(O)cc2[o+]1" equal to or greater than 40%?
Criterion met

Quick check, growth >= 40%? "CCOc1ccc(Nc2nc3ccccc3nc2Nc2ccc(OCC)cc2)cc1"
Criterion met

Threshold query (growth >= 40%) on "CNC(=O)c1cc(-c2ccc(NC(=O)Nc3ccc(C)cc3)cc2)nc2cccnc12"
Criterion met

Kindly determine if growth recorded for "CN1CCN(c2ccc(Nc3nc(NCCCNC(=O)c4ccc(Cl)cc4)c4sccc4n3)cc2)CC1" is above or exactly 40%.
Criterion met

Answer whether growth of COc1cc(/C=C/C(=O)c2ccc(NC(=O)CN3C(=O)NC(C)(c4ccccc4)C3=O)cc2)cc(OC)c1OC (centres undefined) is greater than or equal to 40%.
Criterion met
